Target: T1, ALPP on ALPP-positive SiHa cervical cancer cells (UniProt P05187 23-506, limits assumed)
T1 construct: whole, on cells; SiHa cells (ATCC) are called ALPP-positive cervical cancer cells, and ALPP is the target meant; SiHa is a human line; also called PLAP; SiHa cells
T1 sequence (P05187 23-506 limits assumed): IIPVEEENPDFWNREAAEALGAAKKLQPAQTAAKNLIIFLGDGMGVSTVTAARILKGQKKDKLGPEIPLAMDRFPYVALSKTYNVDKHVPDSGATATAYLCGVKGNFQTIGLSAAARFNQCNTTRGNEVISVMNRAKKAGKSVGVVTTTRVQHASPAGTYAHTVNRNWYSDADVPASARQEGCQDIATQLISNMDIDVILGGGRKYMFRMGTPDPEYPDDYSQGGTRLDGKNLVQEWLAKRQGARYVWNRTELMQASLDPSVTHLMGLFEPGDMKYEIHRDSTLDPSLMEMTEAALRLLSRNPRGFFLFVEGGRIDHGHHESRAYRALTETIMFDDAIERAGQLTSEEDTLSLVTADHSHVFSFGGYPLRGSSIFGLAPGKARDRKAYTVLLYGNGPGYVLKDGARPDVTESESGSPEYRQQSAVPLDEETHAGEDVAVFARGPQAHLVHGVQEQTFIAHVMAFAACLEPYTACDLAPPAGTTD
Assay: flow cytometry on SiHa cells, AF488 goat anti-human secondary
reported property: EC50

Give a short answer stating reported EC50 for humanized anti-ALPP antibody A07 (antibody, V domains shown, Detected with a goat anti-human secondary antibody; also called A07Ab) VH: QVQLKESGPGLVAPSQTLSLTCTVSGFSLTSYGVSWIRQPPGKGLEWIGVIWEDGSTNYHSALISRVSISVDTSKSQFSLKLSSVDAADTAVYYCAKPHYGSSYVGAMEYWGQGTTVTVSS VL: DIQMTQSPSSLSASVGDRVTITCRASENIYSYVAWYQQKPGKAPKFLIYNAKSLAEGVPSRFSGSGSGTDFTLTISSLQPEDFANYYCQHHYVSPWTFGQGTKVEIK .
0.302 µg/mL
